Source: patent US20180050058

- Test system: Hemagglutinin H5N1 A/Vietnam/1994/2004 (V-16) (Influenza A virus H5N1 (A/Vietnam/1994/2004))
- ASSAY: pulldown
PARAMETER: Kd (nM)
Write the value in nM as a bare number.

Problem: # get_value(readout='Kd', item= TGGCAGTGGGTTGAGGGGAAGTCTTATTCG [A3] )
Solution: 7.57

###

- Tested on: Hemagglutinin H5N1 A/bar-headed goose/Qinghai/14/2008 (Hg-2) (Influenza A virus H5N1 (A/bar-headed goose/Qinghai/14/2008))
- ASSAY: pulldown
PARAMETER: Kd (nM)
Write the value in nM as a bare number.

Problem: # get_value(readout='Kd', item= GGGGTCAACTTTTCCTTTGTCGGTTTT [A2] )
Solution: 13.4

###

- System: Hemagglutinin H5N1 A/Indonesia/5/2005 (IN-3) (Influenza A virus H5N1 (A/Indonesia/5/2005))
- ASSAY: pulldown
PARAMETER: pKd
// returns pKd (minus log10 of molar concentration), number only

Problem: # get_value(readout='pKd', item= TGGATTCACGCGGTCTCCGCCCTTGGGTGG [A6] )
Solution: 7.85

###

- Test system: Hemagglutinin H5N3 A/duck/Hokkaido/167/2007 (HK-12) (Influenza A virus H5N3 (A/duck/Hokkaido/167/2007))
- ASSAY: pulldown
PARAMETER: pKd
// returns pKd (minus log10 of molar concentration), number only

Problem: # get_value(readout='pKd', item= TGCACGCAGGGGCCGCTTGGGTGGAGAGGC [A12] )
Solution: 8.46

###

- System: Hemagglutinin H5N1 A/duck/Hunan/795/2002 (HN-8) (Influenza A virus H5N1 (A/duck/Hunan/795/2002))
- ASSAY: pulldown
PARAMETER: pKd
// returns pKd (minus log10 of molar concentration), number only

Problem: # get_value(readout='pKd', item= CTTCTTCCACCCATGCCGGCTGGAGAATCC [A5] )
Solution: 7.91

###

- System: Hemagglutinin H5N8 A/duck/NY191255-59/2002 (D-14) (Influenza A virus H5N8 (A/duck/NY191255-59/2002))
- ASSAY: pulldown
PARAMETER: Kd (nM)
Write the value in nM as a bare number.

Problem: # get_value(readout='Kd', item= TACTTATGTGGGCCGGTGCGTTTGCATTTT [A13] )
Solution: 0.7

###

- Tested on: Hemagglutinin H5N1 A/Cambodia/R0405050/2007 (C-8) (Influenza A virus H5N1 (A/Cambodia/R0405050/2007))
- ASSAY: pulldown
PARAMETER: pKd
// returns pKd (minus log10 of molar concentration), number only

Problem: # get_value(readout='pKd', item= TCACGCTTTTGGTGCATGCAGAGTTTTGTG [A4] )
Solution: 7.36

###

- System: Hemagglutinin H5N1 A/Hubei/2010 (HB-16) (Influenza A virus H5N1 (A/Hubei/2010))
- ASSAY: pulldown
PARAMETER: Kd (nM)
Write the value in nM as a bare number.

Problem: Missing value: Kd, Hemagglutinin H5N1 A/Hubei/2010 (HB-16) (Influenza A virus H5N1 (A/Hubei/2010)), entry ATTGCAAGGAGAGGCTACGGCTATGACAGA [A8] . Fill in?
Solution: 9.4

###

- System: Hemagglutinin H5N1 A/Egypt/2321-NAMRU3/2007 (EG-2) (Influenza A virus H5N1 (A/Egypt/2321-NAMRU3/2007))
- ASSAY: pulldown
PARAMETER: pKd
// returns pKd (minus log10 of molar concentration), number only

Problem: # get_value(readout='pKd', item= TGGGTTTGGAAATTGGGACACAGTGGGGCG [A7] )
Solution: 8.71
